Every entry's value here was drawn from patent US20250250357A1.

Target: T1, human MSLN-FL-his protein (human, UniProt Q13421 296-580)
T1 construct: made in HEK293E cells, purified on nickel column; also called hMSLN-FL-his; human MSLN full-length protein; not shown: His tag
T1 sequence (Q13421 other isoform, or with tags, fused parts or gaps): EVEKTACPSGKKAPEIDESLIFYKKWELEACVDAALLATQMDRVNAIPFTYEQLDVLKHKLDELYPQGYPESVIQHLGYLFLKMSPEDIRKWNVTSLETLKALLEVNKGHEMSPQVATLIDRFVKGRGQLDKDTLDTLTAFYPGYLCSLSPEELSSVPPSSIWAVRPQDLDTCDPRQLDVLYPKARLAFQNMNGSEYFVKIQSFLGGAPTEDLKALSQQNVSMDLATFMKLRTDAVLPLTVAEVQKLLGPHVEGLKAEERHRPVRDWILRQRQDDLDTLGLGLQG
Assay: competitive ELISA; row F2.13.3; further: test concentration or dose not given here
experimentalReadout: competition rate

{"binder": "S009-F1.56.1 (antibody, human IgG1, kappa, V domains shown, human-murine chimeric antibody, human IgG1/kappa constant regions) VH: EVQLQQSGAEVVKPGASVKLSCTASGFNIRHTYMHWVKQRPEQGLEWIGRIDPANGNTEYDPKFQGKATITADTSSNTAYLQLSSLTSEDTAVYYCARDGWYIDVWGAGTTVTVSS VL: DIVMSQSPSSLAVSVGEKVTMSCKSSQSLLYSNNQKNYLAWYQQKPGQSPKLLIYWASTRESGVPDRFTGSGSGTDFTLTISSVKAEDLAVYYCQRYYSYPWTFGGGTKLEIKR", "obsValue": "-588%"}
{"binder": "S009-F2.58.8 (antibody, human IgG1, kappa, V domains shown, human-murine chimeric antibody, human IgG1/kappa constant regions) VH: QVQLLQSGAELAKPGASVKLSCKASGYTFTSYWVHWVKQRPGQGLEWIGYINPNSGYTKYNQKFKDKATLTADKSSSTAYMQLSSLTYEDSAVYYCADHYYGSSRDYFDYWGQGTTLTVSS VL: QIVLTQSPAIMSASPGEKVTMTCSASSSVSYMYWYQQRPGSSPRLLIYDTSNLASGVPVRFSGSGSGTSYSLTISRMEAEDAATYYCQQWNSYPYTFGGGTKLEIKR", "obsValue": "-396%"}
{"binder": "S009-F2.39.3 (antibody, human IgG1, kappa, V domains shown, human-murine chimeric antibody, human IgG1/kappa constant regions) VH: QVQLQQPGTELVKPGASVKLSCKASGYTFTNYWMHWVKQRPGQGLEWIGNINPSSGDSYYNERFMSKAKMTVDKSSSTAYMQLSSLTSEDSAVYYCARSGGLWLAFWGPGTLVTVSA VL: DIVMTQSPSSLAMSVGQKVTMSCKSSQTLLNSVSQNNYLAWYQQKPGQSPTLLVYFASTRESGVPDRFIGGGSGTDFTLTISSVQAEDLADYFCQQHYRTPYTFGGGTNLEIKR", "obsValue": "-525%"}
{"binder": "S009-F2.13.3 (antibody, human IgG1, kappa, V domains shown, human-murine chimeric antibody, human IgG1/kappa constant regions) VH: QVQLQQSGAELMKPGASVKLSCKATGYTFTGYWIEWVKQRPGHGLEWIGEILPGSGSTNYNEKFKGKATFTADTSSNTAYMQLSSLTTEDSAIYYCARAGAWFAYWGQGTLVTVSA VL: QIVLTQSPAIMSASLGERVTMTCTASSSVSSSYLHWYQQKPGSSPKLWTYSTSNLASGVPARFSGSGSGTSYSLTISSMEAEDAATYYCHQYHRSPWTFGGGTKLEIKR", "obsValue": "84%"}
